Test system: Leishmania donovani
Experiment: Leishmania intramacrophage assay
Assay type: functional, organism-based
Set-up: scale not given: in the data most compounds retested in dose-response had high values
Conditions: 30.3 µM; […]
Among all 69,000 compounds or so, about 1,000 (1.4%) showed an effect of 50% or more. What follows is part of a selection rich in strong results, with near analogues and random picks from the rest.
What Percent Effect was measured for each of the following?
Answers are plain numbers, in %.

> print(dat)
                                    compound  reported.value
 1     Cc1nc(N(C)CCCc2nccn2C)c2c(C)nn(C)c2n1           1.733
 2                COc1cccc(CNCc2ccccc2Cl)c1O           11.74
 3  Cl.Fc1cccc(F)c1Cn1c(C2CCCNC2)cc2cccnc21 (stereo not given)          -15.48
 4  CCS(=O)(=O)N1CC[C@H]2[C@H]1CC(=O)N2Cc1csc(C)n1           11.91
 5             COc1cccc(CNCc2ccc(F)cc2Cl)c1O           50.12
 6     Cc1cc(S(=O)(=O)NCC(C)(C)N)c(F)cc1F.Cl           25.52
 7     Cc1cccc(CS(=O)(=O)Cc2ccn(C)c(=O)c2)c1           18.93
 8       O=C(CS(=O)(=O)Cc1nnnn1C1CC1)NCC1CC1           7.259
 9  N#CCCN(CC1CCOC1)Cn1ccc(-c2ccccc2)n1 (stereo not given)           16.63
10   COc1ccc(Cl)cc1CS(=O)(=O)Cc1nc(C2CC2)no1           28.37

Batch lookup, Percent Effect per entry.
1. CCCN(CCOC)c1nc(C)nc2sccc12
2. COc1ccccc1CCN1CCCC(CN(C)Cc2ccc(C)o2)C1 (stereo not given)
3. Cc1noc(C)c1CN(C)c1ncnc2ccccc12
4. Cc1nc(NC(=O)C(C)N(C)Cc2cccc(C#N)c2)sc1C (stereo not given)
5. COCCN(Cc1sccc1C)c1nc(C)nc2sccc12
6. Cc1nc(NC(=O)C(C)N(C)Cc2ccc3c(c2)OCO3)sc1C (stereo not given)
7. Cc1cccc2c1N(C)C(=O)C21CC(=O)Nc2c1cnn2C(C)(C)C (stereo not given)
8. COc1ccc(CNC(C)c2ccc(Cl)cc2)c(OC)c1OC (stereo not given)

[19.01, 51.06, 12.67, -18.76, 13.95, 11.52, -18.37, 11.12]

Batch lookup, Percent Effect per entry.
1. COc1ccc(CNC(C)c2ccc(Cl)c(Cl)c2)c(OC)c1OC (stereo not given)
2. CCOCCN(CCOCC)c1nc(C)nc2sccc12
3. COc1cc(NCCCSc2nnc(C)s2)ncn1
4. COc1cccc(CNCc2ccc(F)c(Cl)c2)c1O

1. 55.53
2. 93.26
3. 57.45
4. 3.534

Batch lookup, Percent Effect per entry.
1. COc1ccc2c(c1)CCCN(CC(=O)NCC1CCCO1)C2 (stereo not given)
2. CCC1=NN2C(=N)/C(=C\c3cccn3-c3ccc(Cl)cc3)C(=O)N=C2S1

1: 55.19; 2: -2.316

// fetch Leishmania donovani Percent Effect for COc1ccc(Cl)cc1CS(=O)(=O)Cc1noc(C)n1 34.45

---

Tested on: Leishmania donovani
Test: Leishmania intramacrophage assay
Type: functional, organism-based
Parameters: scale not given: in the data most compounds retested in dose-response had high values
Conditions: 30 µM; 30.03 µM
The whole screen tested about 69,000 compounds, of which about 1,000 (1.4%) showed an effect of 50% or more. Many of the other results were omitted from the sample, so strong results are more common in it than they were.
Binning rule for recorded Percent Effect: class 0: < 10%; class 1: ≥ 10% and < 40%; class 2: ≥ 40%

Previously resolved entries follow.
> print(dat)
                                    compound  discrete.label
 1  O=C(O)C(F)(F)F.c1cnc(N2CCC3(CC2)CN(CC2CC2)c2ccccc23)nc1         class 1
 2  CC1CCCN(Cc2csc(-c3ncccn3)n2)CC1 (stereo unspecified)         class 2
 3  CCc1nc2n(n1)CC(NCC(=O)Nc1ccc(Cl)cn1)CC2 (stereo unspecified)         class 1
 4  CCn1c(CN2CCCC2)nnc1C1CCN(Cc2ccc(C)o2)CC1         class 2
 5  CC1CN(C)c2ccccc2CN1C(=O)c1ccc[nH]1 (stereo unspecified)         class 1
 6  c1ccc(-c2cc(CN3CCC(c4ccn[nH]4)CC3)on2)cc1         class 2
 7        CN(C)c1cc(CNC(=O)c2ccc(F)cc2F)ccn1         class 2
 8  CCn1cc2c(n1)C(COC)CN(Cc1ccccn1)C2 (stereo unspecified)         class 0
 9  CN1CC(=O)N(c2ccsc2)CC12CCN(S(C)(=O)=O)C2.O=C(O)C(F)(F)F (stereo unspecified)         class 0
10  O=S(=O)(c1ccccc1Cl)N1CCc2nc(C3CCNCC3)ncc2C1         class 2

Now let's try a different one.
Class for O=C(Cn1ccc2ccc(Br)cc21)NC[C@@H]1CCCN2CCCC[C@H]12 ? class 0

---

Test system: Leishmania donovani
Assay: Leishmania intramacrophage assay
Type: functional, organism-based
Design: scale not given: in the data most compounds retested in dose-response had high values
Settings: 30.3 µM; […]
About 1,000 (1.4%) of roughly 69,000 compounds showed an effect of 50% or more. The list comes from a sample in which strong results are over-represented; it also holds close analogues and randomly drawn compounds.
result-type: Percent Effect (%)
One number for each entry, in %.

Batch lookup, Percent Effect per entry.
1. COc1ccc2c(c1)CN(c1nc(C)cc(C)n1)CC2
2. COc1ccnc(N2CCc3ccc(OC(F)F)cc3C2)n1
3. CCc1ccc(C(=O)N2CC(C(=O)NC(C)C)C3(CCOCC3)C2)cc1 (stereo unspecified)
4. Cc1cc(C)nc(N2CCc3ccc(OC(F)F)cc3C2)n1
5. COc1cccc(O[C@H]2CCN(c3nc(C)cc(C)n3)CC[C@@H]2O)c1
6. COc1ccc2c(c1)CN(c1cc(N3CCCC3CO)ncn1)CC2 (stereo unspecified)

[98.91, -15.45, 20.17, 84.87, -35.99, 11.17]

---

What Percent Effect was measured for each of the following?
System: Leishmania donovani
Assay: Leishmania intramacrophage assay
Type: functional, organism-based
Set-up: scale not given: in the data most compounds retested in dose-response had high values
Conditions: 30.3 µM; […]
About 1,000 (1.4%) of roughly 69,000 compounds showed an effect of 50% or more. For the sample, strong results were picked, then their nearest neighbours and some compounds at random.
Numbers only, in %.

Use these answered entries as a reference point.
> print(dat)
                                   compound  reported.value
1  Cc1nc2c(c(NCc3ccc(-c4ccccn4)s3)n1)CCNCC2           74.83
2  CCCOC1CCCN(Cc2nc(-c3ccc(F)cc3F)oc2C)C1 (stereo not given)          -16.44
3  Cc1nc2c(c(NCC(O)c3ccccc3Cl)n1)CCNCC2 (stereo not given)           52.68
4  CC(CNS(C)(=O)=O)Oc1cccc(Cl)c1 (stereo not given)           6.182
5   COc1ccccc1C(N)CC(C)C (stereo not given)           3.977

Batch lookup, Percent Effect per entry.
1. Cc1nc2c(c(NCC(c3ccccc3C)N(C)C)n1)CCNC2 (stereo not given)
2. c1cncc(CN2CCC(NCCc3ccc4c(c3)OCO4)CC2)c1
3. COc1c(C2CCCN2c2ncnc3sccc23)c(C)nn1C (stereo not given)
4. CC(C)C[C@H](N)COc1cccc(F)c1Oc1ccc(Cl)cc1

1. 37.15
2. 21.95
3. 26.6
4. 96.61

---

What Percent Effect was measured for each of the following?
Tested on: Leishmania donovani
Assay: Leishmania intramacrophage assay
Type: functional, organism-based
Parameters: scale not given: in the data most compounds retested in dose-response had high values
Settings: 30.3 µM; […]
Hit rate of the full screen: of about 69,000 compounds, about 1,000 (1.4%) showed an effect of 50% or more. This is one part of a sample in which strong results are shown more often than they occur.
Be sure to follow the number with its unit.

> print(dat)
                            compound  reported.value
1  CCOCC(=O)NCCc1nc(C)cc(C(F)(F)F)n1         -29.08%

Batch lookup, Percent Effect per entry.
1. Cc1ccc(C(=O)O)cc1-c1cccc2c1CCNC2
2. COc1ccc2c(c1)OCC(Cc1ccc(C)nc1N)C2 (configuration not stated)
3. Cc1ccc2cccc(C(=O)NCC3CCN(C(C)C)C3)c2n1 (configuration not stated)

1: 17.04%; 2: -0.8362%; 3: 6.487%

Batch lookup, Percent Effect per entry.
1. CCOC(=O)c1c(NC(=O)CN2CCN(C(C)=O)CC2)sc(C)c1C
2. CCc1nc2c(NCC3COc4cc(OC)ccc4C3)ncnc2o1 (configuration not stated)
3. CC(C)CSCCN1CCN(S(C)(=O)=O)CC1
4. CCc1cc(NCC(N)=O)nc(N2CCCCC2)n1
5. COc1cccc2c1OCC(CNc1cc(N)nc(SC)n1)C2 (configuration not stated)
6. CCCSc1nn(CCCN(C)C)c2nc3sc(C)c(CC)c3c(=O)n12

1: 29.91%; 2: 60.09%; 3: -11.46%; 4: 21.93%; 5: 21.08%; 6: -2.726%

Batch lookup, Percent Effect per entry.
1. CCc1cc(NC2CCN(CC(N)=O)CC2)nc(N2CCCCC2)n1
2. CCC(C(=O)NCCc1nc(C)cc(C(F)(F)F)n1)n1cccn1 (configuration not stated)

["55.44%", "69.8%"]
